Biological target: PD-1/PD-L1 interaction (Homo sapiens, UniProt Q9NZQ7)
Construct: Tag1 (undisclosed kit tag)
Sequence (Q9NZQ7 19-238 limits assumed): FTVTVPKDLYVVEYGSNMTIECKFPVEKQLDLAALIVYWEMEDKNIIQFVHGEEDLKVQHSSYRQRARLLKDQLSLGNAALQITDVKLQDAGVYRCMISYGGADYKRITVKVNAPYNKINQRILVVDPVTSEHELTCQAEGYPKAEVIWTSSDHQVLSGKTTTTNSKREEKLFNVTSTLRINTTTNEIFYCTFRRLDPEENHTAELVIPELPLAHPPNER
Test: PD-1/PD-L1 Homogenous Time-Resolved Fluorescence (HTRF) binding assay (CisBio kit)
Settings: Biochemical PD1/PD-L1 inhibition
Recorded IC50 by entry
RECORDED_ENDPOINT: IC50

# COMPOUND, READOUT_VALUE
records = [
    ("CC(=O)NCCNCc1c(OCc2cncc(C(=O)O)c2)cc(OCc2cccc(-c3ccccc3)c2C)c2c1CCC2", "< 100 nM"),
    ("COc1cc(OCc2cccc(-c3ccccc3)c2C#N)c2c(c1CNCCNC(C)=O)CCC2", "< 100 nM"),
    ("Cc1c(COc2cc(OCc3cncc(C#N)c3)c(CN3C[C@H](O)C[C@H]3C(=O)O)c3c2CCC3)cccc1-c1ccccc1", "< 100 nM"),
    ("Cc1c(COc2cc(OCc3cccc(C#N)c3)c(CN3C[C@H](O)C[C@H]3C(=O)O)c3c2CCC3)cccc1-c1ccccc1", "< 100 nM"),
    ("COc1cc(OCc2cccc(-c3ccccc3)c2C#N)c2c(c1CN1CC3(CC3)C[C@H]1C(=O)O)CCC2", "< 100 nM"),
    ("Cc1c(COc2cc(OCCCCC#N)c(CN3C[C@H](O)C[C@H]3C(=O)O)c3c2CCC3)cccc1-c1ccccc1", "< 100 nM"),
    ("Cc1c(COc2ccc(CN(C)CC(=O)O)c3c2CCC3)cccc1-c1ccccc1", "100 to 500 nM"),
    ("Cc1c(COc2cc(OCCCCC(=O)O)c(CN3CCCC[C@H]3C(=O)O)c3c2CCC3)cccc1-c1ccccc1", "< 100 nM"),
    ("Cc1c(COc2cc(OCc3cccc(C#N)c3)c(CNC34CCC(C(=O)O)(CC3)CC4)c3c2CCC3)cccc1-c1ccccc1", "< 100 nM"),
    ("Cc1c(COc2cc(OCc3cncc(C#N)c3)c(CN3CCC[C@@H]4C[C@@]43C(=O)O)c3c2CCC3)cccc1-c1ccccc1 (racemic)", "< 100 nM"),
    ("COc1nc(OCc2cccc(-c3ccccc3)c2C)c2c(c1CNCCNC(C)=O)CCC2", "< 100 nM"),
    ("COc1cc(OCc2cccc(-c3ccccc3)c2C(F)(F)F)c2c(c1CN1CCCC[C@H]1C(=O)O)CCC2", "> 500 nM"),
    ("Cc1c(COc2cc(OCCCCC(N)=O)c(CN3CCCC[C@H]3C(=O)O)c3c2CCC3)cccc1-c1ccccc1", "< 100 nM"),
    ("CC(=O)NCCNCc1c(OCCCCC(N)=O)cc(OCc2cccc(-c3ccccc3)c2C)c2c1CCC2", "100 to 500 nM"),
    ("COc1cc(OCc2cccc(-c3cccc(OCCCN4CCC(F)(F)C4)c3C)c2C)c2c(c1CNCCNC(C)=O)CCC2", "100 to 500 nM"),
    ("Cc1c(COc2c(Cl)cc(CN3C[C@H](O)C[C@H]3C(=O)O)c3c2CCC3)cccc1-c1ccccc1", "100 to 500 nM"),
    ("CC(=O)NCCNCc1c(OC[C@H]2C[C@H]2C(=O)O)cc(OCc2cccc(-c3ccccc3)c2C)c2c1CCC2", "100 to 500 nM"),
    ("COc1cc(OCc2cccc(-c3ccccc3)c2C#N)c2c(c1CN1CCC[C@@H]3C[C@@]31C(=O)O)CCC2 (racemic)", "< 100 nM"),
    ("Cc1c(COc2cc(OCc3cccc(C#N)c3)c(CN)c3c2CCC3)cccc1-c1ccccc1", "< 100 nM"),
    ("CC(=O)NCCNCc1c(OCCCCC(=O)O)cc(OCc2cccc(-c3ccccc3)c2C)c2c1CCC2", "< 100 nM"),
    ("Cc1c(COc2cc(OC[C@H]3C[C@H]3C(=O)O)c(CN3CCCC[C@H]3C(=O)O)c3c2CCC3)cccc1-c1ccccc1", "100 to 500 nM"),
    ("COC(=O)C12CCC(NCc3c(OCc4cccc(C#N)c4)cc(OCc4cccc(-c5ccccc5)c4C)c4c3CCC4)(CC1)CC2", "100 to 500 nM"),
    ("COc1cc(OCc2cccc(-c3ccccc3)c2C)c2c(c1CN1CC3(CC3)C[C@H]1C(=O)O)CCC2", "< 100 nM"),
    ("Cc1c(COc2cc(OCc3cccc(C#N)c3)c(CN3CCCC(O)C3)c3c2CCC3)cccc1-c1ccccc1 (centres unmarked)", "< 100 nM"),
    ("Cc1c(COc2cc(OCc3cccc(C#N)c3)c(CN3CC4(COC4)C3)c3c2CCC3)cccc1-c1ccccc1", "100 to 500 nM"),
    ("Cc1cc(CN2C[C@H](O)C[C@H]2C(=O)O)c2c(c1OCc1cccc(-c3ccccc3)c1C)CCC2", "100 to 500 nM"),
]
